So I've got a bunch of molecules here, and I need their Efficacy values.
tested-on: Formyl peptide receptor-related sequence 1 (Mus musculus)
test-description: Agonist activity at FPR2 in BALB/c mouse assessed as stimulation of Ca2+ influx measured every 5 secs for 240 secs by FLIPR assay relative to fMLF
Type: functional
Numeric answer only, unit % assumed.

Data request: Could you tell me which Efficacy is on file for COc1ccc(NC(=O)N[C@H](Cc2c[nH]c3ccccc23)C(=O)NCC2(c3ccc(F)cc3)CCCCC2)cc1 ?
Data returned: 25

Data request: Could you tell me which Efficacy is on file for COc1ccc(NC(=O)N[C@H](Cc2c[nH]c3ccccc23)C(=O)NCC2(c3ccnc(F)c3)CCCCC2)cc1 ?
Data returned: 65

Data request: Could you tell me which Efficacy is on file for COc1ccc(NC(=O)N[C@H](Cc2c[nH]c3ccccc23)C(=O)NCC2(c3ccc(OC)cn3)CCCCC2)cc1 ?
Data returned: 30

Data request: Could you tell me which Efficacy is on file for COc1ccc(NC(=O)N[C@H](Cc2c[nH]c3ccccc23)C(=O)NCC2(c3cccnc3)CCCCC2)cc1 ?
Data returned: 80

Data request: Could you tell me which Efficacy is on file for COc1ccc(NC(=O)N[C@@H](Cc2c[nH]c3ccccc23)C(=O)NCC2(c3ccccn3)CCCCC2)cc1 ?
Data returned: 80

Data request: Could you tell me which Efficacy is on file for COc1ccc(NC(=O)N[C@H](Cc2c[nH]c3ccccc23)C(=O)NCC2(c3ccccc3)CCCCC2)cc1 ?
Data returned: 35

Data request: Could you tell me which Efficacy is on file for COc1ccc(NC(=O)N[C@@H](Cc2c[nH]c3ccccc23)C(=O)NCC2(c3ccccc3)CCCCC2)cc1 ?
Data returned: 60

Data request: Could you tell me which Efficacy is on file for COc1ccc(NC(=O)N[C@@H](Cc2c[nH]c3ccccc23)C(=O)NCC2(c3cccnc3)CCCCC2)cc1 ?
Data returned: 75

###

System: Liver microsome
condition-label: rat, microsomes, 1 µM
Description: Half life in rat liver microsomes at 1 uM preincubated for 10 mins followed by addition of NADPH regenerating system by LC-MS analysis
Just a reminder that ties go to not met: only t1/2 strictly below 1 min counts as met.

Data request: Report whether reported t1/2 is lower than 1 min (strictly) for COc1ccc(NC(=O)N[C@H](Cc2c[nH]c3ccccc23)C(=O)NCC2(c3ccc(OC)cn3)CCCCC2)cc1
Data returned: not met

Data request: Report whether reported t1/2 is lower than 1 min (strictly) for COc1ccc(C2(CNC(=O)[C@](C)(Cc3c[nH]c4ccccc34)NC(=O)Nc3ccc([N+](=O)[O-])cc3)CCCCC2)nc1
Data returned: not met

Data request: Report whether reported t1/2 is lower than 1 min (strictly) for COc1ccc(NC(=O)N[C@@H](Cc2c[nH]c3ccccc23)C(=O)NCC2(c3ccc(OC)cn3)CCCCC2)cc1
Data returned: not met

Data request: Report whether reported t1/2 is lower than 1 min (strictly) for COc1ccc(NC(=O)N[C@H](Cc2c[nH]c3ccccc23)C(=O)NCC2(c3ccccn3)CCCCC2)cc1
Data returned: met

Data request: Report whether reported t1/2 is lower than 1 min (strictly) for O=C(O)Cc1ccccc1Nc1c(Cl)cccc1Cl
Data returned: not met

###

tested-on: UniProt:P25090
Sequence (whole entry): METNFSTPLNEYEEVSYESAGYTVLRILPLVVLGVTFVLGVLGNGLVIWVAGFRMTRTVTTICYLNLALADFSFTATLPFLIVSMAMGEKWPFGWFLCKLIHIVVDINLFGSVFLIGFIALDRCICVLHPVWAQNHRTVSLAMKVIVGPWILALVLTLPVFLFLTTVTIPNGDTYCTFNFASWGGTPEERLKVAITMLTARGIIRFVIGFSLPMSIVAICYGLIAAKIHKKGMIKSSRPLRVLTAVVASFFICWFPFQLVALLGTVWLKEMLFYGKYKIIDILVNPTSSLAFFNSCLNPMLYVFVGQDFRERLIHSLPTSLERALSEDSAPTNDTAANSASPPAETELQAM
test-description: Agonist activity at human FPR2 transfected in human HL60 cells assessed as stimulation of Ca2+ influx measured every 5 secs for 240 secs by FLIPR assay relative to WKYMVm
Type: functional, cell-based
condition-label: HL-60
measured-quantity: Efficacy

Data request: Could you tell me which Efficacy is on file for COc1ccc(NC(=O)N[C@H](Cc2c[nH]c3ccccc23)C(=O)NCC2(c3ccc(OC)cn3)CCCCC2)cc1 ?
Data returned: 100%

Data request: Could you tell me which Efficacy is on file for COc1ccc(NC(=O)N[C@@H](Cc2c[nH]c3ccccc23)C(=O)NCC2(c3ccc(OC)cn3)CCCCC2)cc1 ?
Data returned: 120%

Data request: Could you tell me which Efficacy is on file for COc1ccc(NC(=O)N[C@@H](Cc2c[nH]c3ccccc23)C(=O)NCC2(c3ccnc(F)c3)CCCCC2)cc1 ?
Data returned: 115%

Data request: Could you tell me which Efficacy is on file for COc1ccc(NC(=O)N[C@@H](Cc2c[nH]c3ccccc23)C(=O)NCC2(c3cccnc3)CCCCC2)cc1 ?
Data returned: 75%

###

tested-on: N-formyl peptide receptor 2 (Homo sapiens) (UniProt P25090)
Sequence (whole entry): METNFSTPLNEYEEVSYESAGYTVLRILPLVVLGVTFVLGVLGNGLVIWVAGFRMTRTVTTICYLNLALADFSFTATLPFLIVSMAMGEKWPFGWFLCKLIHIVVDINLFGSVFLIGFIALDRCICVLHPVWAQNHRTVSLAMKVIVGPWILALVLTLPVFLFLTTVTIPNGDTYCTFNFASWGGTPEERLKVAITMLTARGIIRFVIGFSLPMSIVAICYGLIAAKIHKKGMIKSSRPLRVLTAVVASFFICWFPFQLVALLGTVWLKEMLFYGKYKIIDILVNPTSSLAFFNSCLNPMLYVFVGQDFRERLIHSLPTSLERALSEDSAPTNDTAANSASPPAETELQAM
test-description: Agonist activity at FPR2 in human PMN assessed as stimulation of Ca2+ influx measured every 5 secs for 240 secs by FLIPR assay relative to fMLF in absence of probenecid
Assay type: functional
measured-quantity: Efficacy (%)
Numeric answer only, unit % assumed.

Data request: Could you tell me which Efficacy is on file for COc1ccc(NC(=O)N[C@H](Cc2c[nH]c3ccccc23)C(=O)NCC2(c3ccc(OC)cn3)CCCCC2)cc1 ?
Data returned: 40

Data request: Could you tell me which Efficacy is on file for COc1ccc(NC(=O)N[C@@H](Cc2c[nH]c3ccccc23)C(=O)NCC2(c3ccnc(F)c3)CCCCC2)cc1 ?
Data returned: 55

Data request: Could you tell me which Efficacy is on file for COc1ccc(NC(=O)N[C@H](Cc2c[nH]c3ccccc23)C(=O)NCC2(c3ccccn3)CCCCC2)cc1 ?
Data returned: 40

Data request: Could you tell me which Efficacy is on file for COc1ccc(NC(=O)N[C@@H](Cc2c[nH]c3ccccc23)C(=O)NCC2(c3ccccn3)CCCCC2)cc1 ?
Data returned: 85

Data request: Could you tell me which Efficacy is on file for COc1ccc(NC(=O)N[C@@H](Cc2c[nH]c3ccccc23)C(=O)NCC2(c3cccnc3)CCCCC2)cc1 ?
Data returned: 30

###

tested-on: UniProtKB O08790
Sequence (O08790 whole entry): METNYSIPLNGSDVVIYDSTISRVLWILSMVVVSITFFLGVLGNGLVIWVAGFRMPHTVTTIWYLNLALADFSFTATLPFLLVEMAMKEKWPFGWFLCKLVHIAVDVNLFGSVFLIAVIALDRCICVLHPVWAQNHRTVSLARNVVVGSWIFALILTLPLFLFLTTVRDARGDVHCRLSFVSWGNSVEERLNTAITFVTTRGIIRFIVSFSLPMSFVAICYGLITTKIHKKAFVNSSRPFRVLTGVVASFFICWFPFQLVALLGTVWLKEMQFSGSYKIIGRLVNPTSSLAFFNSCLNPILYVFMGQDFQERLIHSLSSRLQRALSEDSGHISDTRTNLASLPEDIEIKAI
test-description: Agonist activity at FPR2 in BALB/c mouse assessed as stimulation of Ca2+ influx measured every 5 secs for 240 secs by FLIPR assay relative to fMLF
Assay type: functional
measured-quantity: Efficacy

Data request: Could you tell me which Efficacy is on file for COc1ccc(NC(=O)N[C@@H](Cc2c[nH]c3ccccc23)C(=O)NCC2(c3ccc(OC)cn3)CCCCC2)cc1 ?
Data returned: 110%

Data request: Could you tell me which Efficacy is on file for COc1ccc(NC(=O)N[C@H](Cc2c[nH]c3ccccc23)C(=O)NCC2(c3ccccn3)CCCCC2)cc1 ?
Data returned: 55%

Data request: Could you tell me which Efficacy is on file for COc1ccc(NC(=O)N[C@@H](Cc2c[nH]c3ccccc23)C(=O)NCC2(c3ccnc(F)c3)CCCCC2)cc1 ?
Data returned: 50%

Data request: Could you tell me which Efficacy is on file for COc1ccc(NC(=O)N[C@@H](Cc2c[nH]c3ccccc23)C(=O)NCC2(c3ccc(F)cc3)CCCCC2)cc1 ?
Data returned: 25%

###

tested-on: N-formyl peptide receptor 2 (Homo sapiens)
Sequence (P25090 whole entry): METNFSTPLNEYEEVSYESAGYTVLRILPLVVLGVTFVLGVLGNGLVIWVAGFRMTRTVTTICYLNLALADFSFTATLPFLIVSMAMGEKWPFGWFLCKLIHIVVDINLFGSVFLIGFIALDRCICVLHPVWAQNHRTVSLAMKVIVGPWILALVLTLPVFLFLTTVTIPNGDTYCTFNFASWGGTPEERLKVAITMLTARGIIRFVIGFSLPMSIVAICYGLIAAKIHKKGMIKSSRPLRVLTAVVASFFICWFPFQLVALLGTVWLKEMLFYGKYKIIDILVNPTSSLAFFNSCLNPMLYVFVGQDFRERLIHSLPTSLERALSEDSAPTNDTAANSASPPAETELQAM
test-description: Agonist activity at FPR2 in human PMN assessed as stimulation of Ca2+ influx measured every 5 secs for 240 secs by FLIPR assay in absence of probenecid
Type: functional
condition-label: read-out: EC50
measured-quantity: EC50 (nM)
Numeric answer only, unit nM assumed.

Data request: Could you tell me which EC50 is on file for COc1ccc(NC(=O)N[C@@H](Cc2c[nH]c3ccccc23)C(=O)NCC2(c3cccnc3)CCCCC2)cc1 ?
Data returned: 1800

Data request: Could you tell me which EC50 is on file for COc1ccc(NC(=O)N[C@@H](Cc2c[nH]c3ccccc23)C(=O)NCC2(c3ccccn3)CCCCC2)cc1 ?
Data returned: 1800

Data request: Could you tell me which EC50 is on file for COc1ccc(NC(=O)N[C@@H](Cc2c[nH]c3ccccc23)C(=O)NCC2(c3ccnc(F)c3)CCCCC2)cc1 ?
Data returned: 12600

Data request: Could you tell me which EC50 is on file for COc1ccc(NC(=O)N[C@H](Cc2c[nH]c3ccccc23)C(=O)NCC2(c3ccccn3)CCCCC2)cc1 ?
Data returned: 620
